Read-out: Cytochrome P450 (CYP1A2), CYP1A2 (gene 1544)
experimental_details: LTEA_HepaRG_CYP1A2: Life Technologies and Expression Analysis (LTEA) Assay for Cytochrome P450 (CYP1A2) using HepaRG (AID 2283479)
conditions_used: mRNA level, 48 h; actives raise or lower the signal
Activity calls are given as the source filed them. Rule for the calls: active = hit-call score of the fitted dose curve at least 0.9, where 1 is the maximum; inactive = score below 0.9.
Thanks in advance; please answer with one of these: active, inactive

These solved cases illustrate the format of a correct answer.
C=C(C)[C@H]1Cc2c(ccc3c2O[C@@H]2COc4cc(OC)c(OC)cc4[C@@H]2C3=O)O1 ... active
O=[N+]([O-])c1cc(C(F)(F)F)c(Cl)c([N+](=O)[O-])c1Nc1ncc(C(F)(F)F)cc1Cl ... active
COP(=O)(OC)OC(Br)C(Cl)(Cl)Br (centres undefined) ... active
CC[C@H](C)[C@H]1O[C@]2(C=C[C@@H]1C)C[C@@H]1C[C@@H](C/C=C(\C)[C@@H](O[C@H]3C[C@H](OC)[C@@H](O[C@H]4C[C@H](OC)[C@@H](NC)[C@H](C)O4)[C@H](C)O3)[C@@H](C)/C=C/C=C3\CO[C@@H]4[C@H](O)C(C)=C[C@@H](C(=O)O1)[C@]34O)O2 ... inactive
CSc1nnc(C(C)(C)C)c(=O)n1N ... inactive

Ask: Check the results log: what was the call for CCOP(=S)(Oc1cnc(C(C)(C)C)nc1)OC(C)C (centres undefined) ?
Reply: inactive

Ask: Check the results log: what was the call for `Nc1nc(N)nc(NC2CC2)n1` ?
Reply: inactive

Ask: Check the results log: what was the call for `O=c1ccc(=O)[nH][nH]1` ?
Reply: inactive

Ask: Check the results log: what was the call for `Cc1cc(C2CC2)nc(Nc2ccccc2)n1` ?
Reply: active
